Cited source: ChEMBL document CHEMBL1142999

# test: Oral bioavailability in rat
# Type: ADME, organism-based
# measurementSetup: in vivo
Here, each record is paired with measured bioavailability data.

{"compound": "O=C(Nc1ccc2ccccc2c1)C(c1csc2ccc(Cl)cc12)P(=O)(O)O (configuration not stated)", "bioavailability": "3%"}
{"compound": "CP(=O)(O)C(C(=O)N/C=C/c1cc(F)cc(Cl)c1)c1csc2ccc(Cl)cc12 (configuration not stated)", "bioavailability": "39%"}

* * *

# targetOrSystem: Cathepsin G (Homo sapiens)
# Sequence (P08311 whole entry): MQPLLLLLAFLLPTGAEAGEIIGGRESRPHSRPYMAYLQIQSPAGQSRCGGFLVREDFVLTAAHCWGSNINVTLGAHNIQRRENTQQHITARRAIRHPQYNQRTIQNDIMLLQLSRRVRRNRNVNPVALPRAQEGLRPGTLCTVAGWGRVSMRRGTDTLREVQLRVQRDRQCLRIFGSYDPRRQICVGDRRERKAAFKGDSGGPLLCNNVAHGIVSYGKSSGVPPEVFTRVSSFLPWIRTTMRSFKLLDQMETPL
# test: Inhibition of human neutrophil Cat G

{"compound": "O=C(Nc1ccc2ccccc2c1)C(c1csc2ccc(Cl)cc12)P(=O)(O)O (stereo unspecified)", "u": "µM", "Ki": 9.5}

* * *

# key: entry, value: half-life
# test: Half life in orally dosed rat
# Format: ADME, organism-based
# measurementSetup: in vivo, po

{"compound": "CP(=O)(O)C(C(=O)N/C=C/c1cc(F)cc(Cl)c1)c1csc2ccc(Cl)cc12 (configuration not stated)", "half-life [h]": 4.5}
{"compound": "O=C(Nc1ccc2ccccc2c1)C(c1csc2ccc(Cl)cc12)P(=O)(O)O (configuration not stated)", "half-life [h]": 1.8}
